# SUBJECT OF TEST: T1, human CD3e/d (human, UniProt P07766 23-126; P04234 22-105)
# T1 construct: Bought soluble protein; also called hCD3e/d; human CD3/ed (Sino CT038-H2508H)
# MEASUREMENT DESCRIPTION: SPR (Carterra LSA), mAb on chip
# Procedure: High-throughput surface plasmon resonance (SPR) coupled kinetic experiments were performed on a Carterra LSA® instrument equipped with an HC-30M chip type (Carterra, USA). The instrument uses two microfluidic modules, a single-flow cell (SFC) and a 96 printhead, to deliver samples to the chip surface via back-and-forth cycling of a fixed sample volume. […] The data were analyzed using the Carterra Kinetics analysis software. […]
MEASURED ENDPOINT: Kd (nM)
Give just the number in nM; leave the unit off.

Query: Item under review: mAb 126 (antibody, V domains shown, VH and VL only) VH: EVQLVESGGGLVQPGRSLRLSCAASGFTFNDYTMHWVRQVPGKGLEWVSGISWNSGSIDYADSVKGRFTISRDNAKNSLYLQMNSLRAEDTALYYCAKDSSGYGYYYYYYMDVWGKGTTVTVSS VL: EIVMTQSPATLSVSPGERATLSCRASQSVSINLAWYQQKPGQAPRLLIYGASTRATGIPARFSGSGSGTEFTLTISSLQSEDFAVYYCQLYHNWPHFGQGTRLEIK . Reported Kd?
Response: 9.72

Query: Item under review: mAb 214 (antibody, V domains shown, VH and VL only) VH: EVQLLESGGGLVQPGGSLRLSCAASGFTFSNYAMNWVRQAPGKGLEWVSAISGSRSNTYYADSVKGRFTISRDNSKNTLYLQMNSLRAEDTAVYYCAKGAYSKYPYYYYMDVWGKGTTVTVSS VL: EIVMTQSPATLSLSPGERATLSCRASQSVSSSYLSWYQQKPGQAPRLLIYGASTRAIGIPARFSGSGSGTDFTLTISSLQAEDFAVYYCQQDDNLPWTFGQGTKVEIK . Reported Kd?
Response: 13

Query: Item under review: mAb 273 (antibody, V domains shown, VH and VL only) VH: EVQLVESGGGLVQPGESLKLSCTASGFTFSVSAIHWVRQASGKGLEWVGRIRSKANSYATAYVASVKGRFTLSRDDSKNTAYLQMNSLKTEDTAVYYCSSYYFVSGTYYNHWGQGTLVTVSS VL: DIQMTQSPSSLSASVGDRVTITCRASQGIRYDLGWYQQKPGRAPKRLIHSVSSLQSGVPSRFSGSGSGTEFTLTISSLQPEDFATYYCLQHNVNPCTFGQGTKLEIK . Reported Kd?
Response: 75
